Entries annotated with measured Percent Effect
target: Chromo domain-containing protein 1 (Saccharomyces cerevisiae (strain ATCC 204508 / S288c) (Baker's yeast)); assay: ScCHD-1 Enzyme Inhibition Assay; format: functional; set-up: scale not given: in the data most compounds retested in dose-response had high values; details: 30 µM
Quick note: unit goes after the number.

Q: Look up Percent Effect: Cc1ccccc1CN1CCC2(COCc3cnc(N(C)C)nc32)C1 (stereo unspecified)
A: -2.3%

Q: Field entry: `CN(Cc1ccc(Cl)s1)C(=O)NCc1nnc2n1CCC2`
A: -7.27%

Q: Field entry: `Cc1cnc2c(c1NCc1ccncc1)c(=O)n(C)c(=O)n2C`
A: -2.51%

Q: Field entry: `CC[C@@]1(O)CCN(C(=O)c2ccc(SC)cc2)C[C@H]1O`
A: -3.41%

Q: Field entry: `Cc1cc(C)cc(-c2ccc(CC3(C(=O)O)CCOCC3)cc2)c1`
A: -2.15%

Q: Field entry: COc1ccc(C(=O)N2CCCC(CNS(C)(=O)=O)C2)cc1F (stereo unspecified)
A: -6.29%

Q: Field entry: CCN(CC1CCCO1)C(=O)Nc1ccc(F)cc1OC (stereo unspecified)
A: -7.51%

Q: Field entry: `COc1ccc(CN2C[C@@H](N(C)Cc3ccco3)[C@H]3OCCC[C@H]32)cc1`
A: -3.71%

Q: Field entry: `Cc1n[nH]cc1CNc1ccc2c(c1)CN(C(=O)OC(C)(C)C)CC2`
A: -6.66%

Q: Field entry: Cc1cn2nc(N3CCCC3CC(C)(C)C)sc2n1 (stereo unspecified)
A: -4.52%

Q: Field entry: `CCn1c(Nc2ccccc2OC)nc2c(C)nn(C)c2c1=O`
A: -10.1%

====

target: Sialic acid-binding Ig-like lectin 9 (Homo sapiens) (UniProt Q9Y336); assay: Hs-Siglec9 ALPHAscreen SOP 20170721; design: scale not given: direction of the effect not stated beside the values; conditions: 10 µM
Sequence (Q9Y336 whole entry): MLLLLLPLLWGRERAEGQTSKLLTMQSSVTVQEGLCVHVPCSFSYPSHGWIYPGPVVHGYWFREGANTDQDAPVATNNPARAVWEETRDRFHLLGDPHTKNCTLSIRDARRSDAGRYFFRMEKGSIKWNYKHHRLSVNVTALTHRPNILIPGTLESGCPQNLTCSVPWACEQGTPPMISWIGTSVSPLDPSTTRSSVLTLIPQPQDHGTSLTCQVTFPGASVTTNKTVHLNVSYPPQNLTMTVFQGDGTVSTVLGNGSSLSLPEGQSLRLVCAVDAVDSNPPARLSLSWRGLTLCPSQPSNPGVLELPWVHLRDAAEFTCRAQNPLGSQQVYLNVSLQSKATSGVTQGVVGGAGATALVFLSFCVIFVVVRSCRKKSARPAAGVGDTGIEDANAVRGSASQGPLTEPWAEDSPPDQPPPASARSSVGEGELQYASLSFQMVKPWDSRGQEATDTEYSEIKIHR
Entries annotated with measured Percent Effect
Note: unit % is implicit; provide only the numeric part.

Record excerpt, results attached:
O=C(NCCc1cccc(O)c1)NC1CCN(c2ccccc2)C1=O (centres undefined) = -1.23
Cc1cn(-c2ccccc2)nc1NS(=O)(=O)c1cc(C(=O)O)cs1 = 14.1
O=C([C@@H]1C[C@H]2[C@H](CCN2Cc2nccs2)O1)N1CCOCC1 = -3.79

Q: Item: `CC(C)c1ncc2c(n1)CN(Cc1nc(-c3cccs3)no1)CC2` Test system: Sialic acid-binding Ig-like lectin 9 (Homo sapiens) (UniProt Q9Y336) Read-out: Percent Effect Value: ?
A: -6.68

Q: Field entry: FC1(F)CCN(Cc2ccncc2)CC12CCN(Cc1ccccn1)C2 (centres undefined)
A: 2.49

Q: Field entry: O=C(Cc1cccc(F)c1)N1CCCCC1c1ccn2ccnc2n1 (centres undefined)
A: 3.14

Q: Field entry: Cc1cc(C(=O)N2CCC3(CCCN(CC4CC4)C3=O)C2)c(C)n1C (centres undefined)
A: 6.36

Q: Field entry: `CCCN1CCC(NC(=O)c2ccc(F)cc2I)CC1`
A: 17.7

Q: Field entry: CSCCC1c2nc[nH]c2CCN1Cc1ccnc2ccccc12 (centres undefined)
A: 14.2

Q: Field entry: `CC(C)C(=O)N1CCN(C(=O)c2cc(C(C)C)on2)[C@H]2CS(=O)(=O)C[C@H]21`
A: 11.2

Q: Field entry: COc1ccc(C(O)CNC(=O)Nc2cc(C)nn2C)cc1 (centres undefined)
A: -0.779

Q: Field entry: COCC1CN(C(=O)C2=CCCCC2)Cc2cnn(CC3CC3)c21 (centres undefined)
A: 2.46

Q: Field entry: `O=C1C[C@H]2[C@@H](CCN2C(=O)c2ccccc2)N1CCN1CCOCC1`
A: 2.27

Q: Field entry: `O=C(c1ccoc1)N1CC[C@H]2OCC[C@@]2(COc2ncccc2F)C1`
A: 25.4
